Taken from patent US8378104B2.

# subject-of-test: TAK1-TAB1 fusion protein (Homo sapiens)
# Construct: purchased Carna
# Sequence (O43318 with tags, fused parts or gaps limits assumed): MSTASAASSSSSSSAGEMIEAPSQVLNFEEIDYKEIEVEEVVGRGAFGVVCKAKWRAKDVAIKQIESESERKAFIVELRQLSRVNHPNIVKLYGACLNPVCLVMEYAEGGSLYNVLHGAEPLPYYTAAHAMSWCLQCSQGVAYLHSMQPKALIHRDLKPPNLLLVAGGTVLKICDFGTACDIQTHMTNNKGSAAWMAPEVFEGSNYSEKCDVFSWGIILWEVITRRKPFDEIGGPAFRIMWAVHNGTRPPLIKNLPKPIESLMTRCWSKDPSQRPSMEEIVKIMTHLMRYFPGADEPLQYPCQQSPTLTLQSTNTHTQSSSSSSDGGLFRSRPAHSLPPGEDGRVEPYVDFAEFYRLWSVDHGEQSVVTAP
# test-summary: TAK1 biochemical assay (AlphaScreen, GST-MAP2K7 substrate)
# condition-notes: TAK1-TAB1 fusion protein, GST-MAP2K7 substrate; read-out: mean TAK1 IC50 (Col. A)
pIC50: −log10 of the molar value. Counter-ions that a name gives are not always drawn.
recorded-metric: pIC50

Data point: CC(=O)N1CCC(n2cc(-c3cnc(N)c4oc(-c5ccc6c(c5)OCO6)cc34)cn2)CC1 [Example 117] ; pIC50 = 5.00 to 6.00

Given item CC(=O)N1CCC(n2cc(-c3cnc(N)c4oc(-c5cncc6cnsc56)cc34)cn2)CC1 [Example 262, Diformate Salt] , the value recorded as its pIC50 is 6.00 to 7.00

Looking up CC(=O)N1CCC(n2cc(-c3cnc(N)c4oc(-c5cccc6ncsc56)cc34)cn2)CC1 [Example 225, diformate salt] , I found its pIC50 recorded as > 7.00

molecule CC(=O)N1CCC(n2cc(-c3cnc(N)c4oc(-c5cn(C)c6cnccc56)cc34)cn2)CC1 [Example 266] , pIC50 observed: > 7.00

Nc1ncc(-c2cnn([C@H]3CC[C@H](O)CC3)c2)c2cc(-c3c(-c4ccccc4)sc4cnccc34)oc12 [Example 269, trifluoroacetate] yielded pIC50 of 5.00 to 6.00

Documented pIC50 of CC(=O)N1CCC(n2cc(-c3cnc(N)c4oc(-c5ccc(N6CCCC6)nc5)cc34)cn2)CC1 [Example 139] : < 5.00

The measured pIC50 associated with Cn1ccc(-c2cnc(N)c3oc(-c4csc5cnccc45)cc23)c1 [Example 389, trifluoroacetate] reads 5.00 to 6.00
